Molecular target: SIK1 (Homo sapiens (Human), UniProt P57059)
Sequence (P57059 whole entry): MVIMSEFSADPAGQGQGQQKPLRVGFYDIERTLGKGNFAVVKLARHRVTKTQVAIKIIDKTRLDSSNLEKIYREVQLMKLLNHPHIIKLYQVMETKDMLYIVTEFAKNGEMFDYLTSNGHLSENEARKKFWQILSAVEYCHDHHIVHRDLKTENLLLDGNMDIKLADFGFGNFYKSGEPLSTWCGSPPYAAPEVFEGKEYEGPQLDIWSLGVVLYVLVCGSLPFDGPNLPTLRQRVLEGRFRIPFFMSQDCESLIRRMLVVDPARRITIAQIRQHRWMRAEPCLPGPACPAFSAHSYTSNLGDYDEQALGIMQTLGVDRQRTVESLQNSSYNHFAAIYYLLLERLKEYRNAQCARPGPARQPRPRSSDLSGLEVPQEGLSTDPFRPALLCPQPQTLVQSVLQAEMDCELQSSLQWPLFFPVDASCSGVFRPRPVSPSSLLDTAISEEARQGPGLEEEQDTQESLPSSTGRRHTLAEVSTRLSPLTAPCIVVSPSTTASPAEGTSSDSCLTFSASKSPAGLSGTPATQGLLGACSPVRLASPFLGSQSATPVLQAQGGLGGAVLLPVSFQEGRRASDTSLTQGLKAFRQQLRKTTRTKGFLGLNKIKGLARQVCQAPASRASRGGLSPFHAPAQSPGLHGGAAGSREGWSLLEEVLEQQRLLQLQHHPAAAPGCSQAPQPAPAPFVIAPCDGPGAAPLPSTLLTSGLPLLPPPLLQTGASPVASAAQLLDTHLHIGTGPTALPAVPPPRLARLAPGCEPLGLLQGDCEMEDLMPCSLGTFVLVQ
Experiment: In vitro SIK1 kinase assay
Format: biochemical
readout-type: IC50 (nM)
Numbers only; they are read as nM.

Example entries begin here.
{"columns": ["compound", "readout-type", "observed"],
 "data": [
  ["N#Cc1ccc(-c2cnn3cc(C(=O)NCc4cccnc4)ccc23)cc1 [Example 37]", "IC50", 775],
  ["N#Cc1ccc(-c2cnc3cc(C(=O)NCc4cn5ccccc5n4)ccn23)cc1 [Example 24]", "IC50", 12500]
]}

Okay, now this compound:
## Task Record lookup: for SIK1 (Homo sapiens (Human), UniProt P57059), what IC50 belongs to CCc1nnc(-c2c(OC)cc(-c3cnc4cc(-c5cnn(C6CC6)c5)ccn34)cc2OC)o1 [Example 55] ?
## Result 16
